assay: NCI Yeast Anticancer Drug Screen. Data for the mec2-1 strain (AID 157); settings: S. cerevisiae mec2-1 strain, at 50.0 µM
This is part of a sample that, as a whole, favours compounds with a hit. Of some 79,000 tested, about 15% had one in any assay. Active and inactive are the calls of the source. Rule as the data show it: active = growth inhibition above about 70%; inactive = the rest.
API: response.call in True for active, False for inactive

>>> answer_label("NCCNCCNCc1c2ccccc2c(CNCCNCCN)c2ccccc12")
"True"
>>> answer_label("FC(F)(F)c1cccc(COCCN2CCN(Cc3cccc(C(F)(F)F)c3)CC2)c1")
"True"
>>> answer_label("CC(C)OC(=O)C1C=CCc2c(O)ccc(O)c21 (stereo unspecified)")
"False"
>>> answer_label("c1cc(CCSSCCc2ccncc2)ccn1")
"False"
>>> answer_label("COC(=O)C1(Cc2ccccc2C)Cc2ccc(C)cc2C1=O (stereo unspecified)")
"False"

Now, please, on to the next compound.
How did this test come out for Nc1ccc(S(=O)(=O)NCc2nccs2)cc1 ?
False

====

assay: NCI Yeast Anticancer Drug Screen. Data for the rad50 strain (AID 155);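 also: 0% = growth of vehicle-only cultures of the same strain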; conditions: S. cerevisiae rad50 strain growth inhibition; at 50.0 µM (retest, dose inferred, filed as 5.0); stronger effect = higher value
Compounds without any hit were thinned out: in the full panel of roughly 79,000, 15% have a hit.
Everything with growth inhibition lower than 30% is 0.0; everything else, including exactly 30%, is 1.0.

Example results:
>>> answer_label("O=C(c1ccccc1)c1ccc(Br)cc1O")
0.0
>>> answer_label("CCOC(=O)C1CC2(CCC1N)c1ccccc1-c1ccccc12 (centres undefined)")
0.0
>>> answer_label("Fc1ccc(NC2=NCCN=C(Nc3ccc(F)cc3)SS2)cc1")
1.0
>>> answer_label("COc1ccc(C2=C/C(=C3\\C(=O)Oc4ccccc4C3=O)SS2)cc1")
1.0
>>> answer_label("CC1=CCC[C@@H]2C1(C)CCC(C)[C@@]2(C)CC1=CC(=O)C=CC1=O (some centres undefined)")
1.0
>>> answer_label("CCN(CC)COC(=S)S")
1.0

Identify whether the reported growth inhibition of the following compound is 30% or greater: CCOc1ccccc1/C=C1\NC(=O)N(/C=C2\C(=O)Oc3ccccc3C2=O)C1=O
1.0

Identify whether the reported growth inhibition of the following compound is 30% or greater: N=C1C(=O)c2ccccc2-c2ccccc21
1.0

Identify whether the reported growth inhibition of the following compound is 30% or greater: COC(=O)CC1SC(=S)N(Cc2ccc(Cl)cc2)C1=O (centres undefined)
1.0

Identify whether the reported growth inhibition of the following compound is 30% or greater: CN(C)N=Nc1c(-c2cccs2)n[nH]c1C(F)(F)F
1.0

Identify whether the reported growth inhibition of the following compound is 30% or greater: O=C(O)CN(CCN1CC(=O)OC(=O)C1)CCN1CC(=O)OC(=O)C1
1.0

Identify whether the reported growth inhibition of the following compound is 30% or greater: CC(C)(C)OC(=O)N(CCCCNCc1ccc2ccccc2c1)CCCNCc1ccc2ccccc2c1
1.0

====

assay: NCI Yeast Anticancer Drug Screen. Data for the sgs1 mgt1 strain (AID 161);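 also: 0% = growth of cultures given vehicle only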; conditions: S. cerevisiae sgs1 mgt1 strain, at 50.0 µM, stronger effect = higher value
This is part of a sample that, as a whole, favours compounds with a hit. Of some 79,000 tested, about 15% had one in any assay.
# growth inhibition per record follows
Write down the numeric answer in % and omit the unit.

For orientation, consider the following solved cases.
>>> recorded_value("O=C(CN1CCOCC1)Nc1nc(-c2ccc(Cl)cc2)cs1")
86.4
>>> recorded_value("CCCCN(CCO)CCNc1ccc(C)c2sc3ccccc3c(=O)c12")
99.6
>>> recorded_value("CCOC(=O)C1CCN(Cc2ccccc2)CC1=O (centres undefined)")
92.4
>>> recorded_value("Cc1c(N)ccc(O)c1C")
43.2
>>> recorded_value("CCOP(=O)(CCC(=O)[C@@]1(O)CC[C@H]2[C@@H]3CCC4=CC(=O)CC[C@]4(C)[C@H]3CC[C@@]21C)OCC")
72.8

Output growth inhibition of Cc1cc(N(CCOS(C)(=O)=O)CCOS(C)(=O)=O)ccc1C=Nc1cc(Br)c(O)c(Br)c1
84.2

Output growth inhibition of CCN(CC)CCC(=O)/C=C/c1ccc(C)cc1
18.6

Output growth inhibition of O=C1CSC(=Nc2ccc(F)cc2F)N1Cc1cccs1
90.5

====

assay: NCI Yeast Anticancer Drug Screen. Data for the mec2-1 strain (AID 157); details: S. cerevisiae mec2-1 strain, at 50.0 µM (retest, dose inferred, filed as 5.0)
This is part of a sample that, as a whole, favours compounds with a hit. Of some 79,000 tested, about 15% had one in any assay. Activity calls are given as the source filed them. No stated cut-off is given here; in the data, active means growth inhibition above about 70%; inactive means the rest.
API: response.call in class 1 = active, class 0 = inactive

Example results:
>>> answer_label("O=C(NC(Cc1ccccc1)C(=O)O)c1ccncc1 (stereo not drawn)")
"class 0"
>>> answer_label("CCN(C(C)=O)c1ccc2c(c1)Cc1ccccc1-2")
"class 1"
>>> answer_label("O=C(NCc1ccc(F)cc1)c1ccc(C(=O)NCc2ccc(F)cc2)cc1")
"class 0"
>>> answer_label("CCOc1ccc(/C=N\\NC(=O)c2ccco2)cc1OCC")
"class 0"
>>> answer_label("Clc1cc(Cl)c(OCCOCCI)c(Cl)c1")
"class 0"

How did this test come out for CC(C)n1nnc2ccccc2c1=Nc1ccccc1 ?
class 1

How did this test come out for C/C(=N\NC(=S)NC12CC3CC(CC(C3)C1)C2)c1ccccn1 ?
class 1

How did this test come out for CC(C)C(O)(C(=O)OCN1C(=O)C2C3C=CC(C2C1=O)C1C2C(=O)N(COC(=O)C(O)(C(C)C)C(C)O)C(=O)C2C31)C(C)O (stereo not drawn) ?
class 0

How did this test come out for CC(NC(=O)C(NC(=O)C(NC(=O)C(F)(F)F)C(C)C)C(C)C)C(=O)Oc1c(Cl)c(Cl)c(Cl)c(Cl)c1Cl (stereo not drawn) ?
class 0

How did this test come out for O=C(CC(=O)c1ccccc1)CC(O)(c1ccccc1)c1ccccc1 ?
class 1

How did this test come out for CCC(C)OC(=S)S (stereo not drawn) ?
class 0

====

assay: NCI Yeast Anticancer Drug Screen. Data for the mec2-1 strain (AID 157); conditions: S. cerevisiae mec2-1 strain, at 50.0 µM, stronger effect = higher value
This is part of a sample that, as a whole, favours compounds with a hit. Of some 79,000 tested, about 15% had one in any assay.
MEASURE NAME: growth inhibition (%)
Write down the numeric answer in % and omit the unit.

For orientation, consider the following solved cases.
>>> recorded_value("Cc1ccc(C2=Nc3c(c(C)nn3-c3ccccc3)N=C(C(=O)O)C2)cc1")
82.9
>>> recorded_value("CC(NNC(=S)N1CCCCCC1)c1cccnn1 (stereo not drawn)")
93
>>> recorded_value("CC/C(Cl)=N\\OC(=O)Nc1ccc(F)c(Cl)c1")
84.4

Attention now turns to another entry.
Output growth inhibition of C=C1N(S(=O)(=O)c2ccc(C)cc2)C(=O)OCC12CCCC2
-1.5

====

assay: NCI Yeast Anticancer Drug Screen. Data for the rad50 strain (AID 155);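 also: 0% = growth of vehicle-only cultures of the same strain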; conditions: S. cerevisiae rad50 strain growth inhibition; at 50.0 µM
Compounds without any hit were thinned out: in the full panel of roughly 79,000, 15% have a hit. Calls of active or inactive are those of the source. No stated cut-off is given here; in the data, active means growth inhibition above about 70%; inactive means the rest.
API: response.call in y = active, n = inactive

Example results:
>>> answer_label("CC(=O)c1ccc2c(c1)CC1(C2)Cc2ccccc2C1=O (stereo unspecified)")
"n"
>>> answer_label("CC1CCCC(CCN(C)CCC2CCCCC2)CC1 (stereo unspecified)")
"y"
>>> answer_label("C[CH2][Sn]([CH2]C)([O]C(=O)c1ccccc1OC)[O][Sn]([CH2]C)([CH2]C)[O]C(=O)c1ccccc1OC")
"n"
>>> answer_label("COc1ccc(Cl)c(-c2cc(OC)c(N=N/C(=N/Nc3ccc([N+](=O)[O-])cc3)c3ccc([N+](=O)[O-])cc3)cc2Cl)c1")
"y"
>>> answer_label("O=C(/C=C(\\OB(F)F)c1ccccc1)c1ccccc1")
"y"

How did this test come out for O=[N+]([O-])c1ccccc1OS(=O)(=O)c1ccccc1 ?
n

====

assay: NCI Yeast Anticancer Drug Screen. Data for the bub3 strain (AID 167); settings: S. cerevisiae bub3 mutant strain, at 50.0 µM
This is part of a sample that, as a whole, favours compounds with a hit. Of some 79,000 tested, about 15% had one in any assay. The source made the active and inactive calls. No stated cut-off is given here; in the data, active means growth inhibition above about 70%; inactive means the rest.
API: response.call in YES for active, NO for inactive

Example results:
>>> answer_label("CCCCCCCCN=C(N)c1ccc(C(=O)OCC2CCCCC2)cc1")
"YES"
>>> answer_label("O=[N+]([O-])c1nccn1CCCNCCCn1ccnc1[N+](=O)[O-]")
"NO"

How did this test come out for O=C1c2ccc3c4ccccc4n(Cc4ccccc4)c3c2C(=O)N1c1ccccc1 ?
YES

How did this test come out for CCN(CC)CCCNc1cccc2ccc(OC)nc12 ?
NO
